Source listed as BindingDB's records for doi:10.1016/j.ejmech.2011.07.022.

target: 5-hydroxytryptamine receptor 1A (Rattus norvegicus, UniProt P19327)
Sequence (P19327 whole entry): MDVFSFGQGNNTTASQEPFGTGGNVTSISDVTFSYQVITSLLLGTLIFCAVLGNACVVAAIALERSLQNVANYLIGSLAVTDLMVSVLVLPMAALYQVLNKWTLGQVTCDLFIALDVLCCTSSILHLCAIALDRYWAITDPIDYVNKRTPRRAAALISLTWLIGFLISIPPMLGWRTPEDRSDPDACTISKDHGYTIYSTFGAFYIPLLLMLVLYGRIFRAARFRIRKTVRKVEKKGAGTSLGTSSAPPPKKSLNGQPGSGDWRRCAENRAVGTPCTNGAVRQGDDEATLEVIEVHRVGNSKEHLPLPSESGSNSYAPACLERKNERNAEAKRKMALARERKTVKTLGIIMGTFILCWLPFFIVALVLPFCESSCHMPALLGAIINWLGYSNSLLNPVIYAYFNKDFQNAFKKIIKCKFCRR
metric name: Ki

For record COc1ccc(Cl)cc1C(=O)NC1C[C@H]2CC[C@H](C1)N2Cc1ccco1 (stereo partly specified) the listed Ki is > 100 µM
